These measurements were taken from ChEMBL document CHEMBL1127071.

Target: Endothelin receptor (Rattus norvegicus, UniProt P26684+P21451)
Sequence (P26684 whole entry): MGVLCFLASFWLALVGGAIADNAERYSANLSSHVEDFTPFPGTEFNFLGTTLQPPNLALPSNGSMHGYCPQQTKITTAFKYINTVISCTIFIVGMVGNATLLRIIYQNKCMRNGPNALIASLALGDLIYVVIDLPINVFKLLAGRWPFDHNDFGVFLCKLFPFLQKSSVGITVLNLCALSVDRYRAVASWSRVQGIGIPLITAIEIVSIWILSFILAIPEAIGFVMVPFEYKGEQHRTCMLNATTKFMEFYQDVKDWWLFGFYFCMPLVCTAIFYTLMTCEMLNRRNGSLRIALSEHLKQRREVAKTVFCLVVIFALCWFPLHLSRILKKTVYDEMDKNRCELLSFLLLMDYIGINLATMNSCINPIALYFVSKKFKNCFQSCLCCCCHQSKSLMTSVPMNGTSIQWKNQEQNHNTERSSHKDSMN
Sequence (P21451 whole entry): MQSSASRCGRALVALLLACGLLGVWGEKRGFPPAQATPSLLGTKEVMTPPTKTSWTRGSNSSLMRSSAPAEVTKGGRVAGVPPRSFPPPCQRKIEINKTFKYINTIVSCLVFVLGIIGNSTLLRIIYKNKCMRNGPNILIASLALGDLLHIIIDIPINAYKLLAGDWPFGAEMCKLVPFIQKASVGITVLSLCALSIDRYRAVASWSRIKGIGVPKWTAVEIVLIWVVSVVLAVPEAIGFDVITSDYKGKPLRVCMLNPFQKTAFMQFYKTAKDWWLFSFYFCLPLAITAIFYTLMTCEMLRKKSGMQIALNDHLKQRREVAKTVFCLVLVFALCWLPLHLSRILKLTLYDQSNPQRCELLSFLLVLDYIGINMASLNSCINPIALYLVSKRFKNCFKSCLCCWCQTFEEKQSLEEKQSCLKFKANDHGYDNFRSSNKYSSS
Experiment: Binding affinity against Endothelin receptor from rat heart ventricle
Assay type: protein assay
Where a SMILES comes first, the peptide text is derived from it. [ ]: non-standard residue; d: D form. Orn = NCCC[C@H](N)C(=O)O
Listed here are compounds together with their documented IC50.
observable: IC50 (µM)

{"columns": ["compound", "observable", "result.units", "operator", "recorded.value"],
 "data": [
  ["CC[C@H](C)[C@H](NC(=O)[C@H](CC(=O)O)NC(=O)[C@H](CC(C)C)NC(=O)[C@@H](Cc1ccccc1)NC(C)=O)C(=O)N[C@@H](CCCCN)C(=O)N[C@@H](Cc1c[nH]c2ccccc12)C(=O)O", "IC50", "µM", ">", 50],
  ["CC[C@H](C)[C@H](NC(=O)[C@H](CC(=O)O)NC(=O)[C@H](CCCN)NC(=O)[C@@H](Cc1ccccc1)NC(C)=O)C(=O)N[C@H](C(=O)N[C@@H](Cc1c[nH]c2ccccc12)C(=O)O)[C@@H](C)CC (Ac-[dF][Orn]DIIW-OH)", "IC50", "µM", "=", 0.68],
  ["CC[C@H](C)[C@H](NC(=O)[C@H](CC(=O)O)NC(=O)[C@H](CC(C)C)NC(=O)[C@@H](Cc1ccccc1)NC(C)=O)C(=O)N[C@@H](C)C(=O)N[C@@H](Cc1c[nH]c2ccccc12)C(=O)O (Ac-[dF]LDIAW-OH)", "IC50", "µM", "=", 6.83],
  ["CC[C@H](C)[C@H](NC(=O)[C@H](CC(=O)O)NC(=O)[C@H](CC(C)C)NC(=O)[C@H](Cc1c[nH]cn1)NC(C)=O)C(=O)N[C@H](C(=O)N[C@@H](Cc1c[nH]c2ccccc12)C(=O)O)[C@@H](C)CC", "IC50", "µM", "=", 58],
  ["CC[C@H](C)[C@H](NC(=O)[C@H](CC(=O)O)NC(=O)[C@H](CC(C)C)NC(=O)[C@H](N)Cc1ccccc1)C(=O)N[C@H](C(=O)N[C@@H](Cc1c[nH]c2ccccc12)C(=O)O)[C@@H](C)CC", "IC50", "µM", "=", 12.4]
]}

###

Target: Endothelin receptor (Rattus norvegicus, UniProt P26684+P21451)
Assay: Binding affinity against Endothelin receptor from rat heart ventricle
Assay type: protein assay
Where a SMILES comes first, the peptide text is derived from it. [ ]: non-standard residue; d: D form.
observable: log10(IC50) (log10 of the value in µM)

{"columns": ["compound", "log10(IC50)"],
 "data": [
  ["CC[C@H](C)[C@H](NC(=O)[C@H](CCC(=O)O)NC(=O)[C@H](CC(=O)O)NC(=O)[C@H](CC(C)C)NC(=O)[C@@H](Cc1ccccc1)NC(C)=O)C(=O)N[C@@H](Cc1c[nH]c2ccccc12)C(=O)O", 0.95],
  ["CC[C@@H](C)[C@@H](NC(=O)[C@H](CC(=O)O)NC(=O)[C@H](CC(C)C)NC(=O)[C@H](Cc1c[nH]cn1)NC(C)=O)C(=O)N[C@H](C(=O)N[C@@H](Cc1c[nH]c2ccccc12)C(=O)O)[C@@H](C)CC", 2.23],
  ["CC[C@H](C)[C@H](NC(=O)[C@H](CC(=O)O)NC(=O)[C@@H](Cc1ccccc1)NC(C)=O)C(=O)N[C@H](C(=O)N[C@@H](Cc1c[nH]c2ccccc12)C(=O)O)[C@@H](C)CC (Ac-[dF]DIIW-OH)", 0.33],
  ["CC[C@@H](C)[C@@H](NC(=O)[C@@H](NC(=O)[C@H](CC(=O)O)NC(=O)[C@H](CC(C)C)NC(=O)[C@H](Cc1c[nH]cn1)NC(C)=O)[C@@H](C)CC)C(=O)N[C@@H](Cc1c[nH]c2ccccc12)C(=O)O", 1.23],
  ["CC[C@H](C)[C@H](NC(=O)[C@H](CC(=O)O)NC(=O)[C@H](Cc1ccccc1)NC(=O)[C@@H](Cc1ccccc1)NC(C)=O)C(=O)N[C@H](C(=O)N[C@@H](Cc1c[nH]c2ccccc12)C(=O)O)[C@@H](C)CC (stereo in doubt; 20)", -0.48],
  ["CC[C@H](C)[C@H](NC(=O)[C@H](CC(=O)O)NC(=O)[C@H](CC(C)C)NC(=O)[C@@H](Cc1ccccc1)NC(C)=O)C(=O)N[C@H](C(=O)N[C@@H](Cc1csc2ccccc12)C(=O)O)[C@@H](C)CC", 0.58],
  ["CC[C@H](C)[C@H](NC(=O)[C@@H](NC(=O)[C@@H](CC(=O)O)NC(=O)[C@H](CC(C)C)NC(=O)[C@H](Cc1c[nH]cn1)NC(C)=O)[C@@H](C)CC)C(=O)N[C@@H](Cc1c[nH]c2ccccc12)C(=O)O", 1.57],
  ["CC[C@H](C)[C@H](NC(=O)[C@H](CC(=O)O)NC(=O)[C@H](C)NC(=O)[C@@H](Cc1ccccc1)NC(C)=O)C(=O)N[C@H](C(=O)N[C@@H](Cc1c[nH]c2ccccc12)C(=O)O)[C@@H](C)CC (Ac-[dF]ADIIW-OH)", -0.38],
  ["CC[C@H](C)[C@H](NC(=O)[C@H](C)NC(=O)[C@H](CC(=O)O)NC(=O)[C@H](CC(C)C)NC(=O)[C@@H](Cc1ccccc1)NC(C)=O)C(=O)N[C@@H](Cc1c[nH]c2ccccc12)C(=O)O (Ac-[dF]LDAIW-OH)", 0.21],
  ["CC[C@H](C)[C@H](NC(=O)[C@H](CC(=O)O)NC(=O)[C@H](CC(C)C)NC(=O)[C@@H](Cc1ccccc1)NC(C)=O)C(=O)N[C@H](C(=O)N[C@@H](Cc1c[nH]c2ccccc12)C(=O)O)[C@@H](C)CC (Ac-[dF]LDIIW-OH)", -0.13],
  ["CC[C@H](C)[C@H](NC(=O)[C@H](CC(=O)O)NC(=O)[C@@H](CC(C)C)NC(=O)[C@H](Cc1c[nH]cn1)NC(C)=O)C(=O)N[C@H](C(=O)N[C@@H](Cc1c[nH]c2ccccc12)C(=O)O)[C@@H](C)CC", 1.59],
  ["CC[C@H](C)[C@H](NC(=O)[C@H](CC(=O)O)NC(=O)[C@H](CCC(=O)O)NC(=O)[C@@H](Cc1ccccc1)NC(C)=O)C(=O)N[C@@H](Cc1c[nH]c2ccccc12)C(=O)O", -0.13]
]}

###

Target: Endothelin receptor type B (Rattus norvegicus, UniProt P21451)
Sequence (P21451 whole entry): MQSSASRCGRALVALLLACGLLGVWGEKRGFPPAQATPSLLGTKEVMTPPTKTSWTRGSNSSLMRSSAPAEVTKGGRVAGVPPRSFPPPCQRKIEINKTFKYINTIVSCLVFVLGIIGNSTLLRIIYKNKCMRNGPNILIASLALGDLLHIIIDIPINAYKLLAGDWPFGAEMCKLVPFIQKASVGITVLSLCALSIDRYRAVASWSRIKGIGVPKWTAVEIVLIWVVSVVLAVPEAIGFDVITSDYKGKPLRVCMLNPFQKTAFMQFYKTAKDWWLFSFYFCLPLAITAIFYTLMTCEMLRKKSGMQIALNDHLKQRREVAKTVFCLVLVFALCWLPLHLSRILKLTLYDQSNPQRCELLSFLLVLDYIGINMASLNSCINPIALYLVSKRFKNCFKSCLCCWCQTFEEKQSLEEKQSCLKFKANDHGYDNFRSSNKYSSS
Where a SMILES comes first, the peptide text is derived from it. [ ]: non-standard residue; d: D form. Orn = NCCC[C@H](N)C(=O)O
Decide using IC50 alone. Strictly below 2 µM: Y. Equal to or above 2 µM: N.

{"columns": ["compound", "measured.on", "class.assignment"],
 "data": [
  ["CC[C@H](C)[C@H](NC(=O)[C@H](C)NC(=O)[C@H](CC(=O)O)NC(=O)[C@H](CC(C)C)NC(=O)[C@@H](Cc1ccccc1)NC(C)=O)C(=O)N[C@@H](Cc1c[nH]c2ccccc12)C(=O)O (Ac-[dF]LDAIW-OH)", "Endothelin receptor type B (Rattus norvegicus, UniProt P21451)", "Y"],
  ["CC[C@H](C)[C@H](NC(=O)[C@H](CC(=O)O)NC(=O)[C@H](CCCN)NC(=O)[C@@H](Cc1ccccc1)NC(C)=O)C(=O)N[C@H](C(=O)N[C@@H](Cc1c[nH]c2ccccc12)C(=O)O)[C@@H](C)CC (Ac-[dF][Orn]DIIW-OH)", "Endothelin receptor type B (Rattus norvegicus, UniProt P21451)", "N"],
  ["CC[C@H](C)[C@H](NC(=O)[C@H](CC(=O)O)NC(=O)[C@H](CCC(=O)O)NC(=O)[C@@H](Cc1ccccc1)NC(C)=O)C(=O)N[C@@H](Cc1c[nH]c2ccccc12)C(=O)O", "Endothelin receptor type B (Rattus norvegicus, UniProt P21451)", "Y"],
  ["CC[C@H](C)[C@H](NC(=O)[C@H](CC(=O)O)NC(=O)[C@H](C)NC(=O)[C@@H](Cc1ccccc1)NC(C)=O)C(=O)N[C@H](C(=O)N[C@@H](Cc1c[nH]c2ccccc12)C(=O)O)[C@@H](C)CC (Ac-[dF]ADIIW-OH)", "Endothelin receptor type B (Rattus norvegicus, UniProt P21451)", "Y"],
  ["CC[C@H](C)[C@H](NC(=O)[C@H](Cc1ccccc1)NC(=O)[C@H](CC(=O)O)NC(=O)[C@@H](Cc1ccccc1)NC(C)=O)C(=O)N[C@@H](Cc1c[nH]c2ccccc12)C(=O)O (Ac-[dF]DFIW-OH)", "Endothelin receptor type B (Rattus norvegicus, UniProt P21451)", "N"],
  ["CC[C@H](C)[C@H](NC(=O)[C@H](Cc1ccc(O)cc1)NC(=O)[C@@H](Cc1ccccc1)NC(C)=O)C(=O)N[C@H](C(=O)N[C@@H](Cc1c[nH]c2ccccc12)C(=O)O)[C@@H](C)CC", "Endothelin receptor type B (Rattus norvegicus, UniProt P21451)", "N"],
  ["CC[C@H](C)[C@H](NC(=O)[C@H](CC(=O)O)NC(=O)[C@H](CC(C)C)NC(=O)[C@@H](Cc1ccc(O)cc1)NC(C)=O)C(=O)N[C@H](C(=O)N[C@@H](Cc1c[nH]c2ccccc12)C(=O)O)[C@@H](C)CC (Ac-[dY]LDIIW-OH)", "Endothelin receptor type B (Rattus norvegicus, UniProt P21451)", "N"]
]}
